# System: Saccharomyces cerevisiae
# protocol: protein stability index of tFT-peptide fusion (C-terminal peptide) (PSI (0-1 scale)); higher = more stable (slower turnover)
# protocol.conditions: genetic background: wild type; temperature: 30 C
Hi, to clarify the labels: fulfilled covers protein stability index from 0.3 upward, not fulfilled covers anything below 0.3.

LAVVLVWVPGRW :: fulfilled
WVSFYLLFFFSF :: fulfilled
FGVLLVWWYGLF :: not fulfilled
PSLVFLPPPPPR :: fulfilled
LLLALLFWPCPI :: fulfilled
SVFGLLSVCFFY :: fulfilled
GWLVGLGLVFFT :: fulfilled
GVMSICRWMISV :: not fulfilled

Qu. Please tell me: is the sequence RSGWWQWGRPGT at or over 0.3 in terms of protein stability index?
Ans. fulfilled

Qu. Exam item: decide whether the reported protein stability index for PPTRVPVTLFLV is at least 0.3.
Ans. not fulfilled

Qu. Say whether GFSEGRLTIPVY shows protein stability index of 0.3 or more.
Ans. fulfilled

====

# System: Saccharomyces cerevisiae
# protocol: protein stability index of tFT-peptide fusion (C-terminal peptide) (PSI (0-1 scale)); higher = more stable (slower turnover)
# protocol.conditions: genetic background: wild type; temperature: 30 C
Reported values of protein stability index for individual entries
Lab note: jot the number down without any unit.

Reference set, count: 3
DALYRIIYGNIL [TIP20 C-terminal 12 aa] :: 0.743
KQSQRQVPHSIK [SPO21 C-terminal 12 aa] :: 0.708
RLSRWFNETENI [MEI4 C-terminal 12 aa] :: 0.727

Moving on to the next sequence.
For the sequence MLKFLAVVFFLL [YGL218W C-terminal 12 aa] , the measured protein stability index on Saccharomyces cerevisiae was 0.217

====

# System: Saccharomyces cerevisiae
# protocol: protein stability index of tFT-peptide fusion (C-terminal peptide) (PSI (0-1 scale)); higher = more stable (slower turnover)
# protocol.conditions: genetic background: wild type; temperature: 30 C
sequences and their reported protein stability index
Lab note: record just the number, no unit beside it.

PSTLKQVMNLGA :: 0.666
RHSLPSPPAFCL :: 0.723
LLMFWLSIWFWG :: 0.32
WVLSYVPEIGRL :: 0.741

Per the record, PPLPFAISPPPA has protein stability index of 0.662

====

# System: Saccharomyces cerevisiae
# protocol: protein stability index of tFT-peptide fusion in deletion strain of DAS1 (PSI (0-1 scale)); higher = more stable (slower turnover)
A collection of sequences and their measured protein stability index

Example entries begin here.
FSMRWTDRYWVN :: 0.568
SRWRVGLWRGAS :: 0.672
CKSCGYKFRTNN :: 0.697

Lookup result for LVYYLSCVACIN ; measured protein stability index: 0.0331

VRGAVAGWRLVG yielded protein stability index of 0.655

====

# Tested on: Saccharomyces cerevisiae
# protocol: protein stability index of tFT-peptide fusion (C-terminal peptide) (PSI (0-1 scale)); higher = more stable (slower turnover)
# protocol.conditions: genetic background: wild type; temperature: 30 C
measurement.name: protein stability index

Worked cases, protein stability index given:
LEVHGSCIFICV :: 0.444
WILFQAGSREIR :: 0.701
AERGRMLSEGKW :: 0.701
SPWFPLPSFPLA :: 0.73
PPRPPPPHHVPS :: 0.677

Note: attention shifts to another entry.
GET /value?item= FYSLYLSLVCFN &field=protein stability index returns 0.224

The origin of these recorded values is the supplement of paper PMC10724198.
